System: Staphylococcus epidermidis
assayInfo: Antibacterial activity against methicillin-resistant Staphylococcus epidermidis clinical isolate 202409139 assessed as bacterial growth inhibition measured after 20 hrs by broth dilution method
Type: functional
Exercise: for every item that follows, state its recorded MIC.
Answers are plain numbers, in µg/mL.

Example results:
>  <chemicalString>
C=C[C@]1(C)C[C@@H](OC(=O)CSc2cc(=O)oc3cc(Cl)ccc23)[C@]2(C)[C@H](C)CC[C@]3(CCC(=O)[C@H]32)[C@@H](C)[C@@H]1O

>  <unitOfMeasurement>
µg/mL

>  <MIC>
0.125

$$$$
>  <chemicalString>
C=C[C@]1(C)C[C@@H](OC(=O)CSc2cc(=O)oc3ccc(F)cc23)[C@]2(C)[C@H](C)CC[C@]3(CCC(=O)[C@H]32)[C@@H](C)[C@@H]1O

>  <unitOfMeasurement>
µg/mL

>  <MIC>
0.063

$$$$
>  <chemicalString>
C=C[C@]1(C)C[C@@H](OC(=O)CSc2cc(=O)oc3cc(F)ccc23)[C@]2(C)[C@H](C)CC[C@]3(CCC(=O)[C@H]32)[C@@H](C)[C@@H]1O

>  <unitOfMeasurement>
µg/mL

>  <MIC>
0.125

$$$$
>  <chemicalString>
C=C[C@]1(C)C[C@@H](OC(=O)CSc2cc(=O)oc3cc(C)ccc23)[C@]2(C)[C@H](C)CC[C@]3(CCC(=O)[C@H]32)[C@@H](C)[C@@H]1O

>  <unitOfMeasurement>
µg/mL

>  <MIC>
0.125

$$$$
>  <chemicalString>
C=C[C@]1(C)C[C@@H](OC(=O)CSc2cc(=O)oc3ccc([N+](=O)[O-])cc23)[C@]2(C)[C@H](C)CC[C@]3(CCC(=O)[C@H]32)[C@@H](C)[C@@H]1O

>  <unitOfMeasurement>
µg/mL

>  <MIC>
0.063

$$$$

Query: What does the data say about its MIC? Entry: C=C[C@]1(C)C[C@@H](OC(=O)CSCCOc2cc(=O)oc3cc(OC)ccc23)[C@]2(C)[C@H](C)CC[C@]3(CCC(=O)[C@H]32)[C@@H](C)[C@@H]1O
Result: 0.125

###

assayInfo: AUC (0 to t) in mouse at 5 mg/kg, iv measured after 8 hrs
Type: ADME, organism-based
testParameters: in vivo
measuredMetric: AUCt

Query: What does the data say about its AUCt? Entry: C=C[C@]1(C)C[C@@H](OC(=O)CSc2cc(=O)oc3cc(OC)ccc23)[C@]2(C)[C@H](C)CC[C@]3(CCC(=O)[C@H]32)[C@@H](C)[C@@H]1O
Result: 1740 ng·h/mL

###

Exercise: for every item that follows, state its recorded Ratio.
System: Staphylococcus aureus
assayInfo: Ratio of MBC to MIC against methicillin-resistant Staphylococcus aureus clinical isolate 202311772
Format: functional
One number for each entry.

Example results:
>  <chemicalString>
C=C[C@]1(C)C[C@@H](OC(=O)CSCCN(CC)CC)[C@]2(C)[C@H](C)CC[C@]3(CCC(=O)[C@H]32)[C@@H](C)[C@@H]1O

>  <Ratio>
4

$$$$
>  <chemicalString>
C=C[C@]1(C)C[C@@H](OC(=O)CSc2cc(=O)oc3cc(Br)ccc23)[C@]2(C)[C@H](C)CC[C@]3(CCC(=O)[C@H]32)[C@@H](C)[C@@H]1O

>  <Ratio>
1

$$$$
>  <chemicalString>
C=C[C@]1(C)C[C@@H](OC(=O)CSc2cc(=O)oc3cc(OC)ccc23)[C@]2(C)[C@H](C)CC[C@]3(CCC(=O)[C@H]32)[C@@H](C)[C@@H]1O

>  <Ratio>
1

$$$$

// switching to the query molecule
Query: What does the data say about its Ratio? Entry: C=C[C@]1(C)C[C@@H](OC(=O)CSc2cc(=O)oc3cc(F)ccc23)[C@]2(C)[C@H](C)CC[C@]3(CCC(=O)[C@H]32)[C@@H](C)[C@@H]1O
Result: 2

###

assayInfo: MRT in mouse at 5 mg/kg, iv measured after 8 hrs
Assay type: ADME, organism-based
testParameters: in vivo
measuredMetric: MRT (min)
Give bare numbers, in min.

Query: What does the data say about its MRT? Entry: C=C[C@]1(C)C[C@@H](OC(=O)CSc2cc(=O)oc3cc(OC)ccc23)[C@]2(C)[C@H](C)CC[C@]3(CCC(=O)[C@H]32)[C@@H](C)[C@@H]1O
Result: 36.6

###

Test system: Streptococcus pneumoniae
assayInfo: Ratio of MBC to MIC against penicillin-resistant Streptococcus pneumoniae ATCC 51916
Format: functional
measuredMetric: Ratio

Example results:
>  <chemicalString>
C=C[C@]1(C)C[C@@H](OC(=O)CSc2cc(=O)oc3ccc(Br)cc23)[C@]2(C)[C@H](C)CC[C@]3(CCC(=O)[C@H]32)[C@@H](C)[C@@H]1O

>  <Ratio>
>4

$$$$
>  <chemicalString>
C=C[C@]1(C)C[C@@H](OC(=O)CSCCOc2cc(=O)oc3ccc(C)cc23)[C@]2(C)[C@H](C)CC[C@]3(CCC(=O)[C@H]32)[C@@H](C)[C@@H]1O

>  <Ratio>
>4

$$$$

Query: What does the data say about its Ratio? Entry: C=C[C@]1(C)C[C@@H](OC(=O)CSc2cc(=O)oc3ccc(C)cc23)[C@]2(C)[C@H](C)CC[C@]3(CCC(=O)[C@H]32)[C@@H](C)[C@@H]1O
Result: >4
